Entries with their measured AC50, system Glutamate receptor ionotropic, NMDA 1 (Rattus norvegicus):

CN(C)CCc1c[nH]c2ccc(C[C@H]3COC(=O)N3)cc12	> 30 µM

For each of the molecules below, state AC50.
1. CO[C@H]1C[C@@H]2CC[C@@H](C)[C@@](O)(O2)C(=O)C(=O)N2CCCC[C@H]2C(=O)O[C@H]([C@H](C)C[C@@H]2CC[C@@H](O)[C@H](OC)C2)CC(=O)[C@H](C)/C=C(\C)[C@@H](O)[C@@H](OC)C(=O)[C@H](C)C[C@H](C)/C=C/C=C/C=C/1C
2. Nc1ccn([C@H]2CC[C@@H](CO)O2)c(=O)n1

Ans:
["> 10 µM", "> 10 µM"]
